Numbers sourced from patent US20240018237A1.

- tested_on: T1, human ROR1 (full-length, on the cell surface) (human, UniProt Q01973 30-937)
- T1 construct: whole, on cells; the tumour cell lines carry their own ROR1; also called Ba/F3-ROR1 cells; Jeko-1
- assay_method_text: flow cytometry, Jeko-1 cells
- Procedure: The affinities of the anti-human ROR1 humanized antibodies to Ba/F3-ROR1, Jeko-1, HT-29 and A549 cells were detected by flow cytometry. The specific experimental steps were as follows: the BaBF3-ROR1, Jeko-1, HT-29 and A549 cells were incubated with the purified humanized antibodies of different concentration gradients on ice for 30 minutes, and the anti-ROR1 antibody UC961 with human IgG1 and the anti-TNP antibody were used as positive and negative controls, respectively.
Each entry below carries its recorded pEC50.
Entry type: numeric. Quantity: pEC50, the -log10 of concentration in molar units.

Reference set (2 entries):
• 3D8-Hu96 (antibody, human IgG1, kappa, V domains shown, humanized, human IgG1 / kappa) VH: EVQLVESGGGLVQPGGSLRLSCAASGFTFSSYAMSWVRQAPEKRLEWVSSISNGGSTYYPDSVKGRFTISRDNSKNTLYLQMNSLRAEDTAVYYCARVNYYGYGDYAMDYWGQGTLVTVSS VL: DIQMTQSPSSLSASVGDRVTITCQASQDINSYLSWFQQKPGKSPKTLIYRANRLVTGVPSRFSGSGSGTDYTFTISSLQPEDIATYYCLQYDEFPYTFGGGTKLEIKR = 9.96
• 3D8-HuC44 (antibody, human IgG1, kappa, V domains shown, humanized, human IgG1 / kappa) VH: EVQLVESGGGLVQPGGSLRLSCAASGFTFSSYAMSWVRQAPGKGLEWVSSINSGGSTYYPDSVKGRFTISRDNSKNTLYLQMNSLRAEDTAVYYCARVNYYGYGDYAMDYWGQGTLVTVSS VL: DIQMTQSPSSLSASVGDRVTITCQASQDISNYLTWFQQKPGKSPKTLIHRANRLVTGVPSRFSGSGSGTDFTFTISSLQPEDIATYYCLQYDEFPYTFGGGTKVEIKR = 10.52

GET /value?item= 19F6-Hu35V3 (antibody, human IgG1, kappa, V domains shown, humanized, human IgG1 / kappa) VH: QVQLQESGPGLVKPSQTLSLTCTVSGYSITSDYAWNWIRQFPGKGLEWIGYISYSGSIRYNPSLKSRVTISRDTSKNQFSLKLSSVTAADTAVYYCARGEITYYFDYWGQGTLVTVSS VL: ETTLTQSPAFMSATPGDKVTISCKASTSIDDDMNWYQQKPGKPPKLIISEGNTLRPGIPPRFSSSGYGTDFTFTINKIESEDAATYYCLQSNDLPLTFGQGTKLEIKR &field=pEC50 returns 9.74
